Format: in vivo, human
Setup conditions: human, plasma, oral, 160 mg
Readout label: Vd/F (L)
Write down the numeric answer in L and omit the unit.

Ask | Give reported Vd/F value for "N#Cc1ccc2c(c1)[C@H]1CCCN(C(=O)c3ccc4[nH]cnc4c3)[C@H]1C2"
Reply | 230

====

Type: in vivo, human
Setup conditions: human, plasma, oral, 40 mg, t max, SS, 40 mg; Day 14; median (min–max)
Readout label: Tmax (min)
Output spec: scalar in min, unitless text.

Ask | Return value of Tmax for input "N#Cc1ccc2c(c1)[C@H]1CCCN(C(=O)c3ccc4[nH]cnc4c3)[C@H]1C2" , no commentary.
Reply | 50
